Taken from paper PMC7686626.

- test: Pharmacokinetics study in rats after oral administration of HQCF extract
- Type: in vivo, rat
- measurementParameters: male, Sprague-Dawley, rat, plasma, po, 1526.5 mg/kg
metricName: AUC(0-inf) (ng·h/mL)
The reply should contain only the number, in ng·h/mL.

[[record]]
structuresmilesstring = "C[C@@]12C[C@@]3(O)O[C@@H](O1)[C@]1(COC(=O)c4ccccc4)[C@H]3C[C@@]12O[C@@H]1O[C@H](CO)[C@@H](O)[C@H](O)[C@H]1O"
recordedvalue = 762


Report AUC(0-inf) for `COc1ccc(-c2coc3cc(O)ccc3c2=O)cc1O` please.
1830

###

Here the recorded Cmax is given for each entry.
- test: Pharmacokinetics study in rats after oral administration of HQCF extract
- Type: in vivo, rat
- measurementParameters: male, Sprague-Dawley, rat, plasma, po, 1526.5 mg/kg
The reply should contain only the number, in ng/mL.

[[record]]
structuresmilesstring = "COc1ccc(-c2coc3cc(O)ccc3c2=O)cc1O"
unitabbrev = "ng/mL"
recordedvalue = 247


Report Cmax for `C[C@@]12C[C@@]3(O)O[C@@H](O1)[C@]1(COC(=O)c4ccccc4)[C@H]3C[C@@]12O[C@@H]1O[C@H](CO)[C@@H](O)[C@H](O)[C@H]1O` please.
117

###

- test: Pharmacokinetics study in rats after oral administration of HQCF extract
- Format: in vivo, rat
- measurementParameters: male, Sprague-Dawley, rat, plasma, po, 1526.5 mg/kg
metricName: Tmax (h)
The reply should contain only the number, in h.

[[record]]
structuresmilesstring = "COc1ccc(-c2coc3cc(O)ccc3c2=O)cc1O"
recordedvalue = 1.5


We next turn to a different molecule, shown below.
Report Tmax for `C[C@@]12C[C@@]3(O)O[C@@H](O1)[C@]1(COC(=O)c4ccccc4)[C@H]3C[C@@]12O[C@@H]1O[C@H](CO)[C@@H](O)[C@H](O)[C@H]1O` please.
1.2
